Provenance of the data: ChEMBL document CHEMBL5380868

molecular target: Mitogen-activated protein kinase kinase kinase 14 (Homo sapiens, UniProt Q99558); test: Inhibition of NIK in HEK-293 cells assessed as inhibition of NIK-dependent NF-kappaB response element expression by firefly luciferase reporter gene based analysis; type: cell-based, HEK293
Sequence (Q99558 whole entry): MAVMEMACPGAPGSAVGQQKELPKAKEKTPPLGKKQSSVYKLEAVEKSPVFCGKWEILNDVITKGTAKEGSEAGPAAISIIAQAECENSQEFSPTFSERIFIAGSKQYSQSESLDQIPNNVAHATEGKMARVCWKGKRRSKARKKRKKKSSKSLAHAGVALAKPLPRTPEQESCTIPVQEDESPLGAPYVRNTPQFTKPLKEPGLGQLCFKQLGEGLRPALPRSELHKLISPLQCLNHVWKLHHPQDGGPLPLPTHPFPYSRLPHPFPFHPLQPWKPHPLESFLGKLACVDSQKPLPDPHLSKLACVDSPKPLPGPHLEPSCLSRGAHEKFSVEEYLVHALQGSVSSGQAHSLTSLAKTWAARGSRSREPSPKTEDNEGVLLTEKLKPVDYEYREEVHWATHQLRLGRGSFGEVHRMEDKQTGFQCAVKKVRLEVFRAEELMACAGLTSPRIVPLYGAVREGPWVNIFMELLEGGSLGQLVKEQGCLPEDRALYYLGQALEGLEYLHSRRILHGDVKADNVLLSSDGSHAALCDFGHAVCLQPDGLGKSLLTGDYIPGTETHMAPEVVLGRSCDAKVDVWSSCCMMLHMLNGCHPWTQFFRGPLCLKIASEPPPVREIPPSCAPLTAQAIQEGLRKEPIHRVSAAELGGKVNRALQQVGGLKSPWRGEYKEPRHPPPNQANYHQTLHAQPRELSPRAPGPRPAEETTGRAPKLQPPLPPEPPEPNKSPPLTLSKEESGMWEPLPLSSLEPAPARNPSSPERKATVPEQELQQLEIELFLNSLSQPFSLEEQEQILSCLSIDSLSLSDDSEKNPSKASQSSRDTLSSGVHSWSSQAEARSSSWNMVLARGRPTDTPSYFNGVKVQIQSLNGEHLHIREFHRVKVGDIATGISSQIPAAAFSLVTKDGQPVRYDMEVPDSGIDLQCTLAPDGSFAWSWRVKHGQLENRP
quantity_name: IC50 (µM)
Respond numerically; units are µM and should not be typed.

[in] May I ask what IC50 has been recorded for CN1C(=O)[C@](O)(C#Cc2cccc(-n3nc(C(N)=O)c4cccnc43)c2)[C@H]2C[C@H]21 ?
[out] 0.053

###

assay: Plasma clearance in iv dosed Sprague-Dawley rat; format: ADME, organism-based
quantity_name: clearance

[in] // query clearance value for entry CN1C(=O)[C@](O)(C#Cc2cccc(-n3nc(C(N)=O)c4cccnc43)c2)[C@H]2C[C@H]21
[out] 42 mL/min/kg
